tested on: CLK2; conditions: concentration: 1 μM, replicates: in singlicate; n = 1;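 note: KINOMEscan kinase panel screen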
%Inh overview
readout: %Inh (%)

molecule="O=C(Nc1cccc(-c2nn3ncccc3c2-c2ccnc(Nc3ccccc3)n2)c1)c1c(F)cccc1F [GSK198271]" numericresult=0
molecule="O=c1[nH]cc(-c2ccc(N3CCOCC3)cc2)c2sc(-c3cn[nH]c3)cc12 [GSK2276055]" numericresult=76
molecule="Oc1cc(Nc2ccnc3cc(I)ccc23)ccc1F [GW552771]" numericresult=51
molecule="c1ccc(-c2n[nH]cc2Nc2ccnc3ccccc23)nc1 [GW694077]" numericresult=94.3
molecule="CSc1cccc2c(-c3ccncn3)c(-c3ccc(F)cc3)nn12 [GW514786]" numericresult=0
molecule="CN(C)Cc1ccc(-c2ccc3c(Nc4ccc(Oc5ccccn5)cc4)ccnc3c2)o1 [GW567148]" numericresult=0
molecule="CCCCc1nn2ncccc2c1-c1ccnc(Nc2ccc(N3CCN(C)CC3)cc2)n1 [GW684941]" numericresult=3
molecule="COC(=O)Nc1nc2cc(Oc3ccc(NC(=O)Nc4cc(C(F)(F)F)ccc4F)cn3)ccc2[nH]1.Cl.Cl [GW681170]" numericresult=8
